Test: Prodrug stability assay in bio-relevant media (FaSSIF with Pancreatin, simulated gastrointestinal tract conditions)
Assay type: in vitro ADME
Settings: % parent prodrug remaining at 5 h vs 0 h, 37° C., 0.5 mg/mL Pancreatin in FaSSIF, HPLC area ratio
Description: Prodrug Stability Assay in Bio-Relevant Media The following assay was employed to evaluate the stability of the prodrugs in simulated gastrointestinal tract conditions. Preparation of fasted state simulated intestinal fluid (FaSSIF) using Phares SIF Powder was carried out according to protocols from Phare Drug Delivery AG (Baselland, Switzerland). […]
Entries annotated with measured GI Tract stability
Entry format: amount then unit.

[in] Recorded GI Tract stability for CCCOC(=O)C(C)(C)NP(=O)(CO[C@H](C)Cn1cnc2c(N)ncnc21)OCC(=O)OC1CCCC1 (stereo partly drawn) , please?
[out] 96.64%

[in] Recorded GI Tract stability for CC(C)OC(=O)COP(=O)(CO[C@H](C)Cn1cnc2c(N)ncnc21)NC(C)(C)C(=O)OC(C)C (single isomer, unassigned) [Example 3B] , please?
[out] 95.71%

[in] Recorded GI Tract stability for CCCCCOC(=O)COP(=O)(CO[C@H](C)Cn1cnc2c(N)ncnc21)NC(C)(C)C(=O)OC(C)C (single isomer, unassigned) [Example 8B] , please?
[out] 71.6%

[in] Recorded GI Tract stability for CC(C)OC(=O)COP(=O)(CO[C@H](C)Cn1cnc2c(N)ncnc21)NC1(C(=O)OC(C)C)CCCCC1 (stereo partly drawn) , please?
[out] 99.70%

[in] Recorded GI Tract stability for CCCCOC(=O)C(C)(C)NP(=O)(CO[C@H](C)Cn1cnc2c(N)ncnc21)OCC(=O)OC(C)C (stereo partly drawn) , please?
[out] 98.30%

[in] Recorded GI Tract stability for CC(C)OC(=O)COP(=O)(CO[C@H](C)Cn1cnc2c(N)ncnc21)NC1(C(=O)OC(C)C)CC1 (stereo partly drawn) , please?
[out] 98.18%
